Reported IC50 values follow for various molecules
test system: RT-112; experiment: Cellular Proliferation Assay (Cell Counting Kit-8), RT-112; type: cell-based; details: Homo sapiens, RT-112 cells, 72 hours
METRIC: IC50 (nM)

1) CNC(=O)c1cc(CCc2cnc(Nc3ccc(C)nc3)nc2)c(F)c(OC)c1    93
2) CNC(=O)c1cc(CCc2cnc(Nc3cnn([C@H]4CCCN(C)C4)c3)nc2)c(F)c(OC)c1    64
3) CNC(=O)c1cc(CCc2cnc(Nc3cnn(C[C@@H](C)O)c3)nc2)c(Cl)c(OC)c1    62
